# ASSAYED_SYSTEM: T1, Mouse CLDN18 A2.1 (mouse, UniProt P56857 10-264)
# T1 construct: on transfected HEK293-6E cells; also called Mouse CLDN18 2.1; mouse CLDN18.2 ortholog
# T1 chain: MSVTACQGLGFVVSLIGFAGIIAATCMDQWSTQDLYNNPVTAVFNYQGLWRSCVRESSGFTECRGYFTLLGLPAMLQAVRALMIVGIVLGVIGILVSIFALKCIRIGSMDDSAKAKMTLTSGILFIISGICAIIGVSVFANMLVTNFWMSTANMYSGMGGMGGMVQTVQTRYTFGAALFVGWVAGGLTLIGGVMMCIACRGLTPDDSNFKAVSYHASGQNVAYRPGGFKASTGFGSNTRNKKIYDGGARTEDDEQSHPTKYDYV
# ASSAY_SUMMARY: flow cytometry, HEK293-6E + mouse CLDN18, 4PL fit
Listed here are binders together with their documented EC50.
Give your result in nM as a bare value.

v37409 (antibody, human IgG1, V domains shown, human IgG1-based monoclonal antibody; also called H2-L4) VH: QVQLVESGGGLVQPGGSLRLSCSVSGIDLSSNPMIWVRQAPGKGLEYIGIIDTDGSTYYADWAKGRFTISKDSSKNTVYLQMNSLRAEDTAVYYCARRLHGSSNGYYDDLWGQGTLVTVSS VL: DGQMTQSPSSVSASVGDRVTITCQASQSIYSYLSWYQQKPGQRPKLLIYKASTLASGVPSRFSGSGSGTDFTLTISSVQPEDFATYYCQQGYTVTNVDKNTFGGGTKVEIK    0.89

Challenge: Return reported EC50; argument: v37410 (antibody, human IgG1, V domains shown, human IgG1-based monoclonal antibody; also called H3-L4) VH: QVQLVESGGGLVQPGGSLRLSCSVSGIDLSSNPMIWVRQAPGKGLQYIGIIDTDGSTYYADWAKGRFTISKDSSKNTVYLQMNSLRAEDTAVYYCARRLHGSSNGYYDDLWGQGTLVTVSS VL: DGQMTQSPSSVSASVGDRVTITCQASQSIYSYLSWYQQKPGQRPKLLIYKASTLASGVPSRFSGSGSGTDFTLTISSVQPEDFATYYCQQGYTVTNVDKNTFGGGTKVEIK
Response given: 1.02

Taken from patent US20260028403A1.
